measurement_description: Metabolic stability in Sprague-Dawley rat hepatocytes assessed as hepatic extraction ratio at 1 uM
Format: ADME, cell-based, Hepatocyte
condition_summary: read-out: Stability

{"columns": ["test_smiles", "hepatic extraction ratio at 1 µM"],
 "data": [
  ["N#Cc1ccc(O[C@@H]2CCCC[C@H]2C#N)cc1C(F)(F)F", 0.88]
]}

====

measurement_description: Metabolic stability in Beagle dog hepatocytes assessed as hepatic extraction ratio at 1 uM
Assay type: ADME, cell-based, Canis lupus familiaris, Hepatocyte
condition_summary: read-out: Stability

{"columns": ["test_smiles", "hepatic extraction ratio at 1 µM"],
 "data": [
  ["N#Cc1ccc(O[C@@H]2CCCC[C@H]2C#N)cc1C(F)(F)F", 0.92]
]}

====

measurement_description: Metabolic stability in human hepatocytes assessed as hepatic extraction ratio at 1 uM
Assay type: ADME, cell-based, Hepatocyte
condition_summary: read-out: Stability
recorded_endpoint: hepatic extraction ratio at 1 µM

{"columns": ["test_smiles", "value_observed"],
 "data": [
  ["N#Cc1ccc(O[C@@H]2CCCC[C@H]2C#N)cc1C(F)(F)F", 0.57]
]}
